# measured_on: T1, rHuman Erythropoietin R/Fc Chimera, CF (human, UniProt P19235 25-250)
# T1 construct: Bought from R&D Systems; also called EPO R; EPO R/Fc; not shown: Fc of the bought chimera
# T1 sequence (looked up): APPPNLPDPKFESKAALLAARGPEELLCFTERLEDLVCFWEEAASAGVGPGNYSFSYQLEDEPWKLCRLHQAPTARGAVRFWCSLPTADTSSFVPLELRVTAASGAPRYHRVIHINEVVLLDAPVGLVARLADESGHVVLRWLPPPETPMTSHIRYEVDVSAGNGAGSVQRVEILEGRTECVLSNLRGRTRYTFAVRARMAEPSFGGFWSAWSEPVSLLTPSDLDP
# test_details: ECL Multispot (MSD) assay; antigen spotted on plate, Fab in solution;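 note: fab bound 1 h at 20 °C, detected by TAG-labelled antibody electrochemiluminescence, signal relative to each well's blank, ratio of 4 or more marks a hit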
readout: ECL signal
Respond using a number only.

Could you tell me which ECL signal is on file for Fab VH1-46_IGHD6-6*01_IGHJ1*01 S102A/S103P/S104F/H111F (APFF) & L6_IGKJ1*01 S28P (Fab, V domains shown, Fab made in E. coli; the variable domains were cloned into Plasmid A (CH1, His and Flag tags) and Plasmid C (kappa CL); also called APFF / S28P) VH: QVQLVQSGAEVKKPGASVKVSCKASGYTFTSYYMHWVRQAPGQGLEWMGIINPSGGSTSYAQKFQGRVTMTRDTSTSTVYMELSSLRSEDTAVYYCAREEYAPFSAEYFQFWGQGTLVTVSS VL: EIVLTQSPATLSLSPGERATLSCRASQPVSSYLAWYQQKPGQAPRLLIYDASNRATGIPARFSGSGSGTDFTLTISSLEPEDFAVYYCQQRSNWPPWTFGQGTKVEIKR ? 492

Fab VH1-46_IGHD6-6*01_IGHJ1*01 S102A/S103P/S104F/H111F (APFF) & L6_IGKJ1*01 S28A (Fab, V domains shown, Fab made in E. coli; the variable domains were cloned into Plasmid A (CH1, His and Flag tags) and Plasmid C (kappa CL); also called APFF / S28A) VH: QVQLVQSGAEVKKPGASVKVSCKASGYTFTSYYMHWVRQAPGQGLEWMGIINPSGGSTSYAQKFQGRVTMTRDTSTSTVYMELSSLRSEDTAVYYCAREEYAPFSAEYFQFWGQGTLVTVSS VL: EIVLTQSPATLSLSPGERATLSCRASQAVSSYLAWYQQKPGQAPRLLIYDASNRATGIPARFSGSGSGTDFTLTISSLEPEDFAVYYCQQRSNWPPWTFGQGTKVEIKR ? 424

Check Fab VH1-46_IGHD6-6*01_IGHJ1*01 S102A/S103P/S104F/H111F (APFF) & L6_IGKJ1*01 S28K (Fab, V domains shown, Fab made in E. coli; the variable domains were cloned into Plasmid A (CH1, His and Flag tags) and Plasmid C (kappa CL); also called APFF / S28K) VH: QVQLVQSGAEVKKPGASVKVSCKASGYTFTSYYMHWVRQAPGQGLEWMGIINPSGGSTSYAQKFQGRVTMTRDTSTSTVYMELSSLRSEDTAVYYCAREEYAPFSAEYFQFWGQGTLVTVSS VL: EIVLTQSPATLSLSPGERATLSCRASQKVSSYLAWYQQKPGQAPRLLIYDASNRATGIPARFSGSGSGTDFTLTISSLEPEDFAVYYCQQRSNWPPWTFGQGTKVEIKR too. 477

Then what about the binder Fab VH1-46_IGHD6-6*01_IGHJ1*01 S102A/S103P/S104F/H111F (APFF) & L6_IGKJ1*01 S28F (Fab, V domains shown, Fab made in E. coli; the variable domains were cloned into Plasmid A (CH1, His and Flag tags) and Plasmid C (kappa CL); also called APFF / S28F) VH: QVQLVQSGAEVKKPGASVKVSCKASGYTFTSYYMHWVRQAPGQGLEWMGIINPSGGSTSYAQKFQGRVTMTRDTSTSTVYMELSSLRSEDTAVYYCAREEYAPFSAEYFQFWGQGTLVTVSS VL: EIVLTQSPATLSLSPGERATLSCRASQFVSSYLAWYQQKPGQAPRLLIYDASNRATGIPARFSGSGSGTDFTLTISSLEPEDFAVYYCQQRSNWPPWTFGQGTKVEIKR ? 413

Queued: Fab VH1-46_IGHD6-6*01_IGHJ1*01 S102A/S103P/S104F/H111F (APFF) & L6_IGKJ1*01 S28Q (Fab, V domains shown, Fab made in E. coli; the variable domains were cloned into Plasmid A (CH1, His and Flag tags) and Plasmid C (kappa CL); also called APFF / S28Q) VH: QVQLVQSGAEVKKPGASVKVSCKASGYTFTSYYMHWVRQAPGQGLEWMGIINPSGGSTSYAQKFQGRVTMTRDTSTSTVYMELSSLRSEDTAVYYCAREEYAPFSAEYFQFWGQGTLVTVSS VL: EIVLTQSPATLSLSPGERATLSCRASQQVSSYLAWYQQKPGQAPRLLIYDASNRATGIPARFSGSGSGTDFTLTISSLEPEDFAVYYCQQRSNWPPWTFGQGTKVEIKR 437

Query Fab VH1-46_IGHD6-6*01_IGHJ1*01 S102A/S103P/S104F/H111F (APFF) & L6_IGKJ1*01 S28L (Fab, V domains shown, Fab made in E. coli; the variable domains were cloned into Plasmid A (CH1, His and Flag tags) and Plasmid C (kappa CL); also called APFF / S28L) VH: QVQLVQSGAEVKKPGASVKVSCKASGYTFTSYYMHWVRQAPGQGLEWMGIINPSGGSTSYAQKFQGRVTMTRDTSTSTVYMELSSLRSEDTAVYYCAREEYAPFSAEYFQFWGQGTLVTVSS VL: EIVLTQSPATLSLSPGERATLSCRASQLVSSYLAWYQQKPGQAPRLLIYDASNRATGIPARFSGSGSGTDFTLTISSLEPEDFAVYYCQQRSNWPPWTFGQGTKVEIKR next 404

Cited source: patent US20120316071A1
